system: Bcl-2 (Homo sapiens (Human), UniProt P10415)
protocol-summary: biochemical
condition: Biochemical activity (IC50, nM) BCL-2
readout-kind: IC50

Task: Write down IC50 measured for item O=C(NS(=O)(=O)c1ccc(NCC2CCOCC2)c([N+](=O)[O-])c1)c1ccc(N2CCC3(CCC(N4CCC[C@H]4c4ccccc4C4CC4)CC3)C2)cc1Oc1cnc2[nH]ccc2c1 (stereo partly shown) [Example F42]
Output: 44 nM

Just for reference, patent US11420968B2 is where these values come from.
